tested on: SKOV3; assay: Primary qHTS to identify gynecologic anti-cancer compounds using libraries of approved drugs and bioactive compounds (AID 1345084); details: Gynecologic cancer cell panel viability, ATPlite luminescence, 48 h; series mostly up to 57.5 µM; further: on the % scale 0 is the no-effect control and ±100 the full control effect; nearly all actives have a fitted effect of over 55% in size
Records with an inconclusive call do not appear. Active and inactive are the calls of the source. The call rests on the fitted dose curve; in most records, active means well fitted cell-killing curve with a large enough effect; inconclusive means small, poorly fitted or top-dose-only effect, or effect the other way; inactive means flat fitted curve, though single readings scatter.
Measurement type: activity change, negative = cytotoxicity

Consider the following illustrative entries.
Compound: C=C(COC(=O)CC(C)C)C1Cc2cc(C(C)=O)ccc2O1 (configuration not stated)
activity change, negative = cytotoxicity: inactive

Compound: CCC(C)/C=C(C)/C=C/C1=CC2=C(Cl)C(=O)C(C)(OC(C)=O)C(=O)C2=CN1C(CC(=O)O)C(=O)O (configuration not stated)
activity change, negative = cytotoxicity: inactive

Compound: COc1cc(C(CO)CO[C@@H]2O[C@H](CO)[C@@H](O)[C@H](O)[C@H]2O)ccc1O (some centres not stated)
activity change, negative = cytotoxicity: inactive

Compound: COc1cc(CCCO)ccc1O[C@@H]1O[C@H](CO)[C@@H](O)[C@H](O)[C@H]1O
activity change, negative = cytotoxicity: inactive

Compound: CCC[C@H](N[C@@H](C)C(=O)N1[C@H](C(=O)O)C[C@@H]2CCCC[C@@H]21)C(=O)O
activity change, negative = cytotoxicity: inactive

Compound: C/C=C(\C)C(=O)OCC1OC(OCC2OC(OC3(CO)OC(CO)C(O)C3O)C(O)C(O)C2O)C(O)C(O)C1O (configuration not stated)
activity change, negative = cytotoxicity: inactive

For every listed record, write down its activity change, negative = cytotoxicity.
1. CC1(C)CC[C@]2(C(=O)O)CC[C@]3(C)C(=CCC4[C@@]5(C)C[C@@H](O)[C@H](O)[C@@](C)(CO)C5CC[C@]43C)C2C1 (some centres not stated)
2. CC1(C)CC=C(c2cnc3ccccc3c2)c2cc(C(=O)Nc3ccc(C(=O)O)cc3)ccc21
3. C=C1C(=O)O[C@@H]2CC(C)=C([C@@H](C)CCCOC(C)=O)[C@@H](O)[C@H]12
4. CC(C)=CCc1c(O)cc2oc3cc(C)cc(O)c3c2c1C
5. COC(=O)C1C(c2ccc(O)cc2)C(C(=O)O)C1c1ccc(O)cc1 (configuration not stated)
6. Cc1nc2cc(-c3cc(F)cc(C#N)c3)ccc2s1
7. C[C@H]1[C@H](C)C[C@@H](C(=O)O)C2CC[C@]3(C)C(=CC[C@@H]4[C@@]5(C)CC[C@H](O)C(C)(C)[C@@H]5CC[C@]43C)[C@@H]21 (some centres not stated)
8. COc1c2cc(c(O[C@@H]3O[C@H](CO)[C@@H](O)[C@H](O)[C@H]3O)c1OC)CCCCC(O)CCc1ccc(O)c-2c1 (some centres not stated)

// result
inactive
inactive
inactive
inactive
inactive
inactive
inactive
inactive

###

test system: OV90; test: Primary qHTS to identify gynecologic anti-cancer compounds using libraries of approved drugs and bioactive compounds (AID 1345084); details: Gynecologic cancer cell panel viability, ATPlite luminescence, 48 h; series mostly up to 57.5 µM; further: on the % scale 0 is the no-effect control and ±100 the full control effect; nearly all actives have a fitted effect of over 55% in size
Inconclusive results are not listed. Activity calls are given as the source filed them. Calls come from the whole dose curve; as a rule, active = well fitted cell-killing curve with a large enough effect; inconclusive = small, poorly fitted or top-dose-only effect, or effect the other way; inactive = flat fitted curve, though single readings scatter.
Measurement type: activity change, negative = cytotoxicity

Compound: C=C1C(OC(C)=O)[C@@]23CCC4[C@](C)(C(=O)O)CCC[C@@]4(C)[C@]2(O)CC[C@H]1C3 (some centres undefined)
Val: inactive

Compound: CC1(C)CC2C3=CCC4[C@@]5(C)CC[C@H](OC6OCC(O)C(OC7OC(CO)C(O)C(O)C7O)C6O)C(C)(C)C5CC[C@@]4(C)[C@]3(C)C[C@H](O)[C@@]2(CO)[C@H](OC(=O)c2ccccc2)C1 (some centres undefined)
Val: 18.5% [at 11.6 µM] (inactive)

Compound: CC(C)C1C(OC(=O)/C=C/c2ccccc2)CC2(C)OC2CCC2(C)OC2C1O (centres undefined)
Val: inactive

Compound: C[C@]1(OC(=O)/C=C\c2ccc(O)cc2)C[C@@H](O)[C@]2(O)C=CO[C@@H](O[C@@H]3O[C@H](CO)[C@@H](O)[C@H](O)[C@H]3O)C12 (some centres undefined)
Val: inactive

###

tested on: JEG-3; assay: Primary qHTS to identify gynecologic anti-cancer compounds using libraries of approved drugs and bioactive compounds (AID 1345084); conditions: Gynecologic cancer cell panel viability, ATPlite luminescence, 48 h; series mostly up to 57.5 µM; further: on the % scale 0 is the no-effect control and ±100 the full control effect; nearly all actives have a fitted effect of over 55% in size
Inconclusive results are not listed. The source made the active and inactive calls. The call rests on the fitted dose curve; in most records, active means well fitted cell-killing curve with a large enough effect; inconclusive means small, poorly fitted or top-dose-only effect, or effect the other way; inactive means flat fitted curve, though single readings scatter.
Measurement type: activity change, negative = cytotoxicity

// query Requested field: activity change, negative = cytotoxicity. Item: C[C@@H]1O[C@@H](O[C@H]2[C@H](O[C@H]3[C@H](O[C@H]4CC[C@@]5(C)C(CC[C@]6(C)C5CC=C5[C@@H]7CC(C)(C)C[C@@H](O)[C@]7(C)CC[C@]56C)[C@@]4(C)CO)O[C@H](C(=O)O)[C@@H](O)[C@@H]3O)O[C@H](CO)[C@H](O)[C@@H]2O)[C@H](O)[C@H](O)[C@H]1O (some centres not stated)
// result 7.46% [at 11.6 µM] (inactive)

###

system: HACAT; assay: qHTS assay to identify novel small-molecules to repurpose for Merkel cell carcinoma treatment (AID 1296009); conditions: MCC and control cell lines, CellTiter-Glo viability, 72 h; at 44.8 µM (top of the series) unless noted; further: nearly all actives have a fitted effect of over 60% in size
Records with an inconclusive call do not appear. The source made the active and inactive calls. Calls follow the shape of the dose curve; as a rule, active = well fitted inhibition curve with a large enough effect; inconclusive = small, poorly fitted or top-dose-only effect; inactive = flat fitted curve, though single readings scatter.
Measurement type: outcome

Consider the following illustrative entries.
Compound: CC12CC(O)C(O)C=C1c1cc(O)cc(O)c1C(=O)O2 (stereo unspecified)
Measurement type: outcome
Val: inactive

Compound: C[C@@]1(C(=O)O)CCC[C@@]2(C)C3=CC[C@H]4C[C@@]3(CC[C@H]12)CC4(O)CO (stereo partly specified)
Measurement type: outcome
Val: inactive

Compound: CCC(C)/C=C(C)/C=C/C(=O)C1CCC(O)C(C)(O)C1=O (stereo unspecified)
Measurement type: outcome
Val: inactive

Compound: CNC(C)C(=O)NC(C(=O)N1CCCC1C(=O)Nc1cccc2ncccc12)C(C)C (stereo unspecified)
Measurement type: outcome
Val: inactive

Compound: C[C@@H]1CC[C@]2(C(=O)O)CC[C@]3(C)C(=CCC4[C@@]5(C)C[C@@H](O)[C@H](O)[C@@](C)(CO)C5CC[C@]43C)C2[C@H]1C (stereo partly specified)
Measurement type: outcome
Val: inactive [at 17.4 µM]

For every listed record, write down its outcome.
1. C=CC(C)(O)CC/C=C(\C)C(=O)O[C@@H]1[C@@H](O)[C@H](OC(C)(C=C)CC/C=C(\C)C(=O)O[C@@H]2O[C@H](CO)[C@@H](O)[C@H](O)[C@H]2O)O[C@H](CO)[C@H]1OC(=O)/C(C)=C/CCC(C)(O)C=C (stereo partly specified)
2. CN(C)CCC[C@]1(c2ccc(F)cc2)OCc2cc(C#N)ccc21
3. CC1=C2CC(=O)C(C)CC/C=C(\C)CC2OC1=O (stereo unspecified)
4. CC(C)c1cc2c(c(O)c1O)[C@@]13CCCC(C)(C)C1[C@@H](O)[C@@H]2OC3=O (stereo partly specified)
5. O=C(/C=C/c1ccc(O)c(O)c1)OC[C@H]1O[C@@H](OC2CCCCC2O)[C@H](O)[C@@H](O)[C@@H]1O (stereo partly specified)
6. N#CN1CCC[C@@H](n2nc(-c3ccc(Oc4ccc(F)cc4F)cc3)c(C(N)=O)c2N)C1
7. C/C=C(\C)C(=O)OC1CC2C(CC=C3CC(OC4CC(OC)C(OC5CC(OC)C(OC6CC(OC)C(OC7CC(OC)C(OC8CC(OC)C(OC9OC(CO)C(O)C(O)C9O)C(C)O8)C(C)O7)C(C)O6)C(C)O5)C(C)O4)CCC32C)C2(O)CCC(C(C)=O)C12C (stereo unspecified)

// result
1. inactive [at 9.27 µM]
2. inactive
3. inactive
4. inactive
5. inactive [at 17.4 µM]
6. inactive
7. inactive [at 9.27 µM]

For every listed record, write down its outcome.
1. C[C@@]12CC3(S(=O)(=O)O)OC(O1)[C@]1(COC(=O)c4ccccc4)[C@H]3C[C@]21O[C@@H]1O[C@H](CO)[C@@H](O)[C@H](O)[C@H]1O
2. COc1cc(O)c2c(c1Cl)CC(C)OC2=O (stereo unspecified)

// result
inactive [at 17.4 µM]
inactive

###

test system: C33A; assay: Primary qHTS to identify gynecologic anti-cancer compounds using libraries of approved drugs and bioactive compounds (AID 1345084); conditions: Gynecologic cancer cell panel viability, ATPlite luminescence, 48 h; series mostly up to 57.5 µM; further: on the % scale 0 is the no-effect control and ±100 the full control effect; nearly all actives have a fitted effect of over 55% in size
Inconclusive results are not listed. Active and inactive are the calls of the source. The call rests on the fitted dose curve; in most records, active means well fitted cell-killing curve with a large enough effect; inconclusive means small, poorly fitted or top-dose-only effect, or effect the other way; inactive means flat fitted curve, though single readings scatter.

Compound: CC1(C)CC[C@]2(C(=O)O)CC[C@]3(C)C(=CCC4[C@@]5(C)CC[C@H](O[C@H]6O[C@H](C(=O)O)[C@@H](O)[C@H](O[C@@H]7O[C@H](CO)[C@H](O)[C@H](O)[C@H]7O)[C@H]6O)C(C)(C)C5CC[C@]43C)[C@@H]2C1 (stereo partly drawn)
activity change, negative = cytotoxicity: 17.4% [at 11.6 µM] (inactive)
--
Compound: C/C=C(/C)C(=O)OC1C2OC2C2(CO2)C2C3OC(=O)C(C)C3CCC12C (stereo not drawn)
activity change, negative = cytotoxicity: inactive
--
Compound: COc1ccc(N2CCN(CCCNC(=O)Cn3c(=O)c4cccn4c4c(C)ccnc43)CC2)cc1
activity change, negative = cytotoxicity: inactive
